The measured values listed here are drawn from ChEMBL document CHEMBL4354828.

# Tested on: Escherichia coli; further: test concentration or dose not given here
# ASSAY_EXPLANATION: Inhibition of NDM in Escherichia coli CDC-0452 assessed as cefepime antibacterial activity after 16 to 20 hrs by CLSI-based microbroth dilution method (reference value: […] ug/ml)
Would you mind telling me the reported MIC of each entry?
Give bare numbers, in µg/mL.

Worked cases, answers included:
N[C@H]1CC[C@H](CC(=O)N[C@H]2Cc3cccc(C(=O)O)c3OB2O)CC1; 4
NCCN[C@H]1CC[C@H](CC(=O)N[C@H]2Cc3cccc(C(=O)O)c3OB2O)CC1; 0.125
NCc1ccc(CC(=O)N[C@H]2Cc3cccc(C(=O)O)c3OB2O)cc1; 2
CC(=O)N[C@H]1Cc2cccc(C(=O)O)c2OB1O; 8

IN: Can you share its MIC? I mean this compound: NC(=O)[C@@H]1CC[C@@H]2CN1C(=O)N2OS(=O)(=O)O
OUT: 8
